The values you see were collected from ChEMBL document CHEMBL4406914.

Reported pIC50 is given for each of the following compounds.
biological target: mTORC2 (Homo sapiens); assay: Inhibition of mTORC2 in human A431 cells assessed as AKT phosphorylation at S473 residue incubated for 3 hrs by HTRF assay
# reply with the number alone; pIC50 is -log10 of concentration in mol/L

Worked cases, answers included:
# entry smiles, target, result
measured = [
    ("CC(C)n1nc(-c2ccc3oc(N)nc3c2)c2c(=O)[nH]cnc21", "mTORC2 (Homo sapiens)", 6.89),
    ("CC(C)n1nc(-c2ccc3oc(N)nc3c2)c2c(=O)[nH]c(N)nc21", "mTORC2 (Homo sapiens)", 6.70),
]

Fill blank: measured pIC50 of the compound CCCCn1nc(-c2ccc3oc(N)nc3c2)c2c(C)nc(N)nc21 is ____.
7.05

Fill blank: measured pIC50 of the compound CCc1nc(N)nc2c1c(-c1ccc3oc(N)nc3c1)nn2C(C)C is ____.
6.85

Fill blank: measured pIC50 of the compound CCCCn1nc(-c2ccc3oc(N)nc3c2)c2c(Cl)nc(N)nc21 is ____.
7.70

Fill blank: measured pIC50 of the compound COc1nc(N)nc2c1c(-c1ccc3oc(N)nc3c1)nn2C(C)C is ____.
6.17

====

target: mTORC1 (Homo sapiens); assay: Inhibition of mTORC1 in human A431 cells assessed as S6RP phosphorylation incubated for 3 hrs by HTRF assay
Reported log10 of IC50 is given for each of the following compounds.
Short version: log10 scale, IC50, nM.

Worked cases, answers included:
# entry smiles, target, log10 of IC50
data = [
    ("CC(C)n1nc(-c2ccc3oc(N)nc3c2)c2c(Br)nc(N)nc21", "mTORC1 (Homo sapiens)", 1.54),
    ("CC(C)n1nc(-c2ccc3oc(N)nc3c2)c2c(=O)[nH]c(N)nc21", "mTORC1 (Homo sapiens)", 1.60),
    ("CNc1nc2c(c(-c3ccc4oc(N)nc4c3)nn2C(C)C)c(=O)[nH]1", "mTORC1 (Homo sapiens)", 2.38),
]

Fill blank: measured log10 of IC50 of the compound CCCCn1nc(-c2ccc3oc(N)nc3c2)c2c(Cl)nc(N)nc21 is ____.
0.85

Fill blank: measured log10 of IC50 of the compound Cc1nc2c(c(-c3ccc4oc(N)nc4c3)nn2C(C)C)c(=O)[nH]1 is ____.
1.65

====

assay: Lipophilicity, ChromlogD of compound at 0.5 mM at pH 6.5 by UPLC-UV analysis; conditions: buffer, pH 6.5, 500 µM
readout name: ChromlogD6.5

# entry smiles, result
data = [
    ("CC(C)n1nc(-c2ccc3oc(N)nc3c2)c2c(=O)[nH]cnc21", 0.9),
    ("CC(C)n1nc(-c2ccc3oc(N)nc3c2)c2c(Br)nc(N)nc21", 1.8),
]

Fill blank: measured ChromlogD6.5 of the molecule CC(C)n1nc(-c2ccc3oc(N)nc3c2)c2c(F)nc(N)nc21 is ____.
1.8

====

target: Phosphatidylinositol 4,5-bisphosphate 3-kinase catalytic subunit alpha isoform (Homo sapiens)
Sequence (P42336 whole entry, canonical isoform): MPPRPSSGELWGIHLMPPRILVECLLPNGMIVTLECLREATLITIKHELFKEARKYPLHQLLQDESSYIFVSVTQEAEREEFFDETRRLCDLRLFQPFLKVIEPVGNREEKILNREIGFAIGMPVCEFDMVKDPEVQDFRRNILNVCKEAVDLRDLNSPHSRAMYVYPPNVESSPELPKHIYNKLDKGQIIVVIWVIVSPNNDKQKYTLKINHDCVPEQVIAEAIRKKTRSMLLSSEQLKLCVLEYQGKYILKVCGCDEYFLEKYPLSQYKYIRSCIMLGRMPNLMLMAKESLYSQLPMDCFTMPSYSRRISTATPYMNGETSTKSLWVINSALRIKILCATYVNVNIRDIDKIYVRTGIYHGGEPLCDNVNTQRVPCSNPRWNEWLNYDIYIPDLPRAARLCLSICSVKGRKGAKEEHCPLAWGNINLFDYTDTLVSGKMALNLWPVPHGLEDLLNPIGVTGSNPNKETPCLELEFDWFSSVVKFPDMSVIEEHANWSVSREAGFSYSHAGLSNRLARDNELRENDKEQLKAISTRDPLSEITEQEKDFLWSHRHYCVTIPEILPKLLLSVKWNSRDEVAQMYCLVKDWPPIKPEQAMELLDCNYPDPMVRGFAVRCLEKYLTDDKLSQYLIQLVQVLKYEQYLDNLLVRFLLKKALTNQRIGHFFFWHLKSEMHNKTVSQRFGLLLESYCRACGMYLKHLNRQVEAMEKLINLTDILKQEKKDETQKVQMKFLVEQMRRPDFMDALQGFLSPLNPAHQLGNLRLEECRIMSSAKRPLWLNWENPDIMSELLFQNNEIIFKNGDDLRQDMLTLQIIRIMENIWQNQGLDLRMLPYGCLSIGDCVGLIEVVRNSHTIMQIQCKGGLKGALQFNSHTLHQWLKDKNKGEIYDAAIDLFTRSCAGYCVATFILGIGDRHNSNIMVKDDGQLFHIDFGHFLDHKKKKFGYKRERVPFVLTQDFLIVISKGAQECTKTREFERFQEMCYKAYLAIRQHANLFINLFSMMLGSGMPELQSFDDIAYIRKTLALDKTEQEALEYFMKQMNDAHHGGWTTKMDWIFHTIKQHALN
Reported pKi is given for each of the following compounds.
# reply with the number alone; pKi is -log10 of concentration in mol/L

# entry smiles, result
rows = [
    ("CC(C)n1nc(-c2ccc3oc(N)nc3c2)c2c(Cl)nc(N)nc21", 6.04),
    ("CC(C)n1nc(-c2ccc3oc(N)nc3c2)c2c(Br)nc(N)nc21", 6.00),
]

Now turn to the next compound.
Fill blank: measured pKi of the compound CCCCn1nc(-c2ccc3oc(N)nc3c2)c2c(Cl)nc(N)nc21 is ____.
5.34

====

assay: Lipophilicity, ChromlogD of compound at 0.5 mM at pH 6.5 by UPLC-UV analysis; settings: buffer, pH 6.5, 500 µM
Criterion: ChromlogD6.5 meeting or surpassing 1. Met: class 1. Not met: class 0.

Here are 5 molecules together with their reported answers.
# entry smiles, category
data = [
    ("CCCCn1nc(-c2ccc3oc(N)nc3c2)c2c(C)nc(N)nc21", "class 1"),
    ("Cc1nc(N)nc2c1c(-c1ccc3oc(N)nc3c1)nn2C(C)C", "class 0"),
    ("CC(C)n1nc(-c2ccc3oc(N)nc3c2)c2c(CO)nc(N)nc21", "class 0"),
    ("CC(C)n1nc(-c2ccc3oc(N)nc3c2)c2cnc(N)nc21", "class 1"),
    ("CC(C)n1nc(-c2ccc3oc(N)nc3c2)c2c(=O)[nH]c(N(C)C)nc21", "class 1"),
]

# evaluate next
Decide: is the reported value of ChromlogD6.5 for CCCCn1nc(-c2ccc3oc(N)nc3c2)c2c(Cl)nc(N)nc21 equal to or greater than 1?
class 1

====

test: Kinetic aqueous solubility of compound in phosphate buffer at pH 7.4 at 100 uM at 20 degree C shaken for 24 hrs by HPLC analysis; format: physicochemical; conditions: read-out: Kinetic_solubility
Criterion: solubility kinetic at 24 h, 100 µM meeting or surpassing 2 µM. Met: yes (1). Not met: no (0).

# entry smiles, category
rows = [
    ("CC(C)n1nc(-c2ccc3oc(N)nc3c2)c2cnc(N)nc21", "no (0)"),
]

Decide: is the reported value of solubility kinetic at 24 h, 100 µM for CCc1nc(N)nc2c1c(-c1ccc3oc(N)nc3c1)nn2C(C)C equal to or greater than 2 µM?
yes (1)

Decide: is the reported value of solubility kinetic at 24 h, 100 µM for CNc1nc2c(c(-c3ccc4oc(N)nc4c3)nn2C(C)C)c(=O)[nH]1 equal to or greater than 2 µM?
no (0)

Decide: is the reported value of solubility kinetic at 24 h, 100 µM for Cc1nc(N)nc2c1c(-c1ccc3oc(N)nc3c1)nn2C(C)C equal to or greater than 2 µM?
yes (1)

Decide: is the reported value of solubility kinetic at 24 h, 100 µM for CC(C)n1nc(-c2ccc3oc(N)nc3c2)c2c(Br)nc(N)nc21 equal to or greater than 2 µM?
yes (1)

====

Reported pIC50 is given for each of the following molecules.
biological target: mTORC1 (Homo sapiens, UniProt P42345); test: Inhibition of mTORC1 in human A431 cells assessed as S6RP phosphorylation incubated for 3 hrs by HTRF assay
# reply with the number alone; pIC50 is -log10 of concentration in mol/L

# entry smiles, result
records = [
    ("CCCCn1nc(-c2ccc3oc(N)nc3c2)c2c(C)nc(N)nc21", 7.52),
    ("CC(C)n1nc(-c2ccc3oc(N)nc3c2)c2c(Cl)nc(N)nc21", 8.10),
    ("Cc1nc(N)nc2c1c(-c1ccc3oc(N)nc3c1)nn2C(C)C", 7.40),
    ("COc1nc(N)nc2c1c(-c1ccc3oc(N)nc3c1)nn2C(C)C", 6.38),
    ("CC(C)n1nc(-c2ccc3oc(N)nc3c2)c2c(F)nc(N)nc21", 7.40),
    ("CC(C)n1nc(-c2ccc3oc(N)nc3c2)c2c(=O)[nH]cnc21", 7.52),
    ("CC(C)n1nc(-c2ccc3oc(N)nc3c2)c2cnc(N)nc21", 8.15),
    ("CCc1nc(N)nc2c1c(-c1ccc3oc(N)nc3c1)nn2C(C)C", 7.22),
]

Fill blank: measured pIC50 of the molecule CC(C)n1nc(-c2ccc3oc(N)nc3c2)c2c(N)nc(N)nc21 is ____.
8.40

====

assay: Kinetic aqueous solubility of compound in phosphate buffer at pH 7.4 at 100 uM at 20 degree C shaken for 24 hrs by HPLC analysis; assay type: physicochemical; conditions: read-out: Kinetic_solubility
Reported log10 of solubility kinetic at 24 h, 100 µM is given for each of the following compounds.
Short version: log10 scale, solubility kinetic at 24 h, 100 µM, µM.

# entry smiles, result
measured = [
    ("CC(C)n1nc(-c2ccc3oc(N)nc3c2)c2c(=O)[nH]cnc21", 0.48),
    ("CC(C)n1nc(-c2ccc3oc(N)nc3c2)c2c(=O)[nH]c(N(C)C)nc21", 0.30),
    ("CC(C)n1nc(-c2ccc3oc(N)nc3c2)c2c(=O)[nH]c(N)nc21", 0.96),
    ("CC(C)n1nc(-c2ccc3oc(N)nc3c2)c2c(CO)nc(N)nc21", 1.91),
    ("Cc1nc2c(c(-c3ccc4oc(N)nc4c3)nn2C(C)C)c(=O)[nH]1", 0.48),
]

Fill blank: measured log10 of solubility kinetic at 24 h, 100 µM of the compound CCCCn1nc(-c2ccc3oc(N)nc3c2)c2c(C)nc(N)nc21 is ____.
0.72

Fill blank: measured log10 of solubility kinetic at 24 h, 100 µM of the compound CC(C)n1nc(-c2ccc3oc(N)nc3c2)c2c(N)nc(N)nc21 is ____.
1.94

Fill blank: measured log10 of solubility kinetic at 24 h, 100 µM of the compound CC(C)n1nc(-c2ccc3oc(N)nc3c2)c2c(N)ncnc21 is ____.
1.91
